Reference for the values: ChEMBL document CHEMBL4513216

# testProtocol: Toxicity liver stage against HepG2, at 10uM
# Format: cell-based
# Design: test concentration 10 uM, cell line HepG2-A16-CD81EGFP
# experimentalParameters: human, HepG2-A16-CD81EGFP cells; read-out: INHIBITION
testReadout: cytotoxicity at 10 µM (%)
Kindly answer with a numeric value in %, unit omitted.

Reference set, count: 6
Cc1nc(-c2cccs2)ccc1C(=O)N1CCN(CCO)CC1 = -56
CN(CC1CCCN1C)c1nccc(C2CCCC2)n1 (configuration not stated) = -12.9
CCc1nnc2n1CCN(C(=O)c1ccc3[nH]nnc3c1)C2 = -0.337
NC(=O)CN1CCN(c2ccnc3c(F)ccc(F)c23)CC1 = 0.315
Cn1ccnc1CN1C[C@@H]2[C@@H](C1)OCC(=O)N2CC1CCCC1 = -4.48
Cc1cn[nH]c1C1CCCCN1C(=O)CCc1c(C)n[nH]c1C (configuration not stated) = -10.5

Data request: Look at this molecule and give its reported cytotoxicity at 10 µM. `CCOC[C@@H]1CC[C@H]2[C@H](CCN2Cc2c(C)noc2C)O1`
Data returned: 10.5

Data request: For the molecule shown here, NC(=O)C(NC(=O)CCc1ccc(Cl)s1)c1ccccc1 (configuration not stated) , give the reported cytotoxicity at 10 µM.
Data returned: 1.28

Data request: Requested field: cytotoxicity at 10 µM. Item: CCNc1ccnc(CN2CCCC2C(=O)Nc2nccs2)c1 (configuration not stated)
Data returned: 4.32

Data request: Item `O=C(N[C@@H]1CN(C2CCCC2)C[C@@H]2CCCO[C@@H]21)c1cnccn1` has what recorded cytotoxicity at 10 µM?
Data returned: -1.58

Data request: Data request, read-out cytotoxicity at 10 µM, for CCn1ncc2c1C(COC)N(C(=O)c1cccs1)CC2 (configuration not stated)
Data returned: -112

Data request: Given the molecule `CC(=O)c1ccc(S(=O)(=O)NCc2cccnc2N(C)C)cc1` , what is its reported cytotoxicity at 10 µM?
Data returned: 12.6

Data request: Please report the recorded cytotoxicity at 10 µM for `Cc1cccc(OC2CCN(C(=O)NCCn3ccnc3)CC2)c1C` .
Data returned: 0.856
